# experimental.system: Human μ-calpain (Homo sapiens)
# Construct: Human μ-calpain is isolated from erythrocytes
# Sequence (P07384 1-714): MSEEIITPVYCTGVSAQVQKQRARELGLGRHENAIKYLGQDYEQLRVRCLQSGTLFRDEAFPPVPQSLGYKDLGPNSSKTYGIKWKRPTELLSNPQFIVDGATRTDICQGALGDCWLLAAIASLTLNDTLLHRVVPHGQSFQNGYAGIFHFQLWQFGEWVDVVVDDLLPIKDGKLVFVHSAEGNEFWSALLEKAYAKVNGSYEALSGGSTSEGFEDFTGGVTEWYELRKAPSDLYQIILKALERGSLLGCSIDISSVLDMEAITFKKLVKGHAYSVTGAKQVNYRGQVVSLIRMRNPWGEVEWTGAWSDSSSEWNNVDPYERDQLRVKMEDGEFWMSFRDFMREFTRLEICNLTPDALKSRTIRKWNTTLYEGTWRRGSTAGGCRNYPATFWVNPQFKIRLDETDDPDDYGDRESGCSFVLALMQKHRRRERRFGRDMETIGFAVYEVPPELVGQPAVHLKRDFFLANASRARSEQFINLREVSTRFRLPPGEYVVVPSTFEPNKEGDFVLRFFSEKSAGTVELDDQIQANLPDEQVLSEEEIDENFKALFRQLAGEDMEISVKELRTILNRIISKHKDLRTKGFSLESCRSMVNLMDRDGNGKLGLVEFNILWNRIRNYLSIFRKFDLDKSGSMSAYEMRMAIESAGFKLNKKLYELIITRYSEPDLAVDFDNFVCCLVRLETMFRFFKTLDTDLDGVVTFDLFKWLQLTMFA
# Sequence (P04632 1-268 partner): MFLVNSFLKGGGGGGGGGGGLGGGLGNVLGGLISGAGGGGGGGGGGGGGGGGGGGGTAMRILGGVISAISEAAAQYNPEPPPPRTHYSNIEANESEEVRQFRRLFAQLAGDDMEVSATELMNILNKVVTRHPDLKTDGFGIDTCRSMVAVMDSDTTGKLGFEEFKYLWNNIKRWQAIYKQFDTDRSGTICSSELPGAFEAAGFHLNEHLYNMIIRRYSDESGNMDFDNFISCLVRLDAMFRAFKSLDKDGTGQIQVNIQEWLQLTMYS
# test.description: Calpain I and II test (fluorogenic substrate Suc-Leu-Tyr-AMC)
# test.context: reversible inhibition, 12° C., pH 7.5
measure: Ki

Item under review: `O=C[C@H](Cc1ccccc1)NC(=O)c1ccccc1-c1ccccc1` . Reported Ki? < 500 nM
